Target: T1, ARHGAP21, Q5T5U3
T1 sequence (Q5T5U3 45-169, limits assumed, looked up): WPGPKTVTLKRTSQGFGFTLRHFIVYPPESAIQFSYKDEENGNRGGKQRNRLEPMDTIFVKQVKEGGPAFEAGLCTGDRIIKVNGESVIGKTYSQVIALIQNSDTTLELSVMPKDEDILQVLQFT
Test: holdup assay
Design: key: below the threshold = too weak to quantify, mostly under pKd 3.1 to 4
Conditions: plain residues with an end cap or a label only (N-terminal biotin on a linker: ado-ado)
endpoint: pKd

QQGLLPHSSC [TYRO3, Q06418]: 4
WAKEKQHTRL [SLC17A1, Q14916]: 3.81
TKDKVQETQI [LRRC4, Q9HBW1]: 4.05
EPAKETTTNV [SLC2A3, P11169]: 4.06

Source: paper PMC9482650
